- Test system: ATP;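 also: ATP exposure 15 min at 22 °C before imaging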
- assay: switch fluorescence ratio, 500 uM ATP over buffer (Cy3 cluster intensity, sum of 5 cycles each) (fold (ratio)); higher = stronger signal-on switching upon ATP binding; sequences stand for … in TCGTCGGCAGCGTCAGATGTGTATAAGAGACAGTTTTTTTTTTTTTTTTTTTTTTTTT…TC
- setup-conditions: aptamer strand: ATP DNA aptamer (quencher-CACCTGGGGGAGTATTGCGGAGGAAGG + anchor), 100 nM annealed; ATP concentration: 500 uM
Entry flag: true (1) if switch fluorescence ratio reaches 1; false (0) if it does not.

# example entries with known answers
GCTCCCAGGA; true (1)
CGCACGATGC; true (1)
CGGTTGTGCG; false (0)

*Q* Could you verify whether the entry "TCGGGTTGG" shows switch fluorescence ratio of no less than 1?
*A* true (1)

*Q* Could you verify whether the entry "TAATATAACC" shows switch fluorescence ratio of no less than 1?
*A* true (1)

*Q* Could you verify whether the entry "TAAAAATTTG" shows switch fluorescence ratio of no less than 1?
*A* true (1)

* * *

Parameter switch fluorescence ratio: see the listing below.
- Test system: ATP;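 also: ATP exposure 15 min at 22 °C before imaging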
- assay: switch fluorescence ratio, 500 uM ATP over buffer (Cy3 cluster intensity, sum of 5 cycles each) (fold (ratio)); higher = stronger signal-on switching upon ATP binding; sequences stand for … in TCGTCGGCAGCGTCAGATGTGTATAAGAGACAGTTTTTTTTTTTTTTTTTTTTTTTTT…TC
- setup-conditions: aptamer strand: ATP DNA aptamer (quencher-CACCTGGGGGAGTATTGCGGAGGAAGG + anchor), 100 nM annealed; ATP concentration: 500 uM
Please reply with the value in numeric form only.

CAGGGTTTGG; 1.01

*Q* For the sequence "ACGCCATTCT" , give its reported switch fluorescence ratio.
*A* 1.15

*Q* For the sequence "GGATGACTGG" , give its reported switch fluorescence ratio.
*A* 0.999

* * *

Parameter switch fluorescence ratio: see the listing below.
- Test system: ATP;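 also: ATP exposure 15 min at 22 °C before imaging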
- assay: switch fluorescence ratio, 500 uM ATP over buffer (Cy3 cluster intensity, sum of 5 cycles each) (fold (ratio)); higher = stronger signal-on switching upon ATP binding; sequences stand for … in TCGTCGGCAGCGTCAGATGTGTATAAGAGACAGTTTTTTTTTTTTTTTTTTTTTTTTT…TC
- setup-conditions: aptamer strand: ATP DNA aptamer (quencher-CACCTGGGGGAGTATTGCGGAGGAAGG + anchor), 100 nM annealed; ATP concentration: 500 uM
Please reply with the value in numeric form only.

*Q* // fetch switch fluorescence ratio for "TTTCTGGTCT" ; system: ATP;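 also: ATP exposure 15 min at 22 °C before imaging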
*A* 1.03

*Q* // fetch switch fluorescence ratio for "GTCCATCCCA" ; system: ATP;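 also: ATP exposure 15 min at 22 °C before imaging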
*A* 1

*Q* // fetch switch fluorescence ratio for "GGGCCAGGGC" ; system: ATP;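 also: ATP exposure 15 min at 22 °C before imaging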
*A* 1.02

*Q* // fetch switch fluorescence ratio for "TTTTTATTCT" ; system: ATP;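 also: ATP exposure 15 min at 22 °C before imaging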
*A* 1.02

* * *

- System: ATP;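 also: ATP exposure 15 min at 22 °C before imaging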
- assay: switch fluorescence ratio, 500 uM ATP over buffer (Cy3 cluster intensity, sum of 5 cycles each) (fold (ratio)); higher = stronger signal-on switching upon ATP binding; sequences stand for … in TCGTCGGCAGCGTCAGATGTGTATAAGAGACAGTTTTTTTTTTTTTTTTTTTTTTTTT…TC
- setup-conditions: aptamer strand: ATP DNA aptamer (quencher-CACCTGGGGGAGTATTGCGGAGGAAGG + anchor), 100 nM annealed; ATP concentration: 500 uM
Parameter switch fluorescence ratio: see the listing below.

ATGAGGTGAT; 1.06
CATGCGGATG; 1
GTTTTCTTGG; 0.977
ACGCGACACC; 1.25
TTACTGATCG; 1.02

*Q* For the sequence "ACGGTCGGGC" , give its reported switch fluorescence ratio.
*A* 0.978

*Q* For the sequence "TTAACTGTTT" , give its reported switch fluorescence ratio.
*A* 0.992

*Q* For the sequence "AATATCTGTG" , give its reported switch fluorescence ratio.
*A* 1.01
